Target: T1, MPP5 PDZ domain (residues 238-336) (human, UniProt Q8N3R9 238-336)
T1 sequence: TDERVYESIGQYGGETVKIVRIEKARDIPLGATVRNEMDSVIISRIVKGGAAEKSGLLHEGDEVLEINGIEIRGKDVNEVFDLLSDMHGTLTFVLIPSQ
Test: MST
pKd: −log10 of the molar value.
valueType: pKd

- binder: "NLNSSRVPDLLV [C-terminal SARS-CoV-2-E PBM peptide (12-mer, original strain)]"
  valueType: "pKd"
  quantitativeResult: 4.52
